Target: T1, human TREM2 Fc fusion (entire TREM2 ECD; only one Fc arm fused to TREM2) (human, UniProt Q9NZC2 19-174)
T1 construct: also called huTREM2-Fc; recombinant hTREM2
T1 sequence: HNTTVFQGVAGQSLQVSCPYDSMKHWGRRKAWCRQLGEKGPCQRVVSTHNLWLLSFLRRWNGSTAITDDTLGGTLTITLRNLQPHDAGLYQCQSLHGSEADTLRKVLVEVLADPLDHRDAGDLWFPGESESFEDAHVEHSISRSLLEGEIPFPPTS
Test: BLI, Fab, monovalent
# pKd annotations
FYI, pKd means -log10 of a concentration in mol per litre.

// pKd lookup, binder = AL2p-56 (antibody, V domains shown, same VH/VL entries as AL2p-55; Fab and IgG formats under one id) VH: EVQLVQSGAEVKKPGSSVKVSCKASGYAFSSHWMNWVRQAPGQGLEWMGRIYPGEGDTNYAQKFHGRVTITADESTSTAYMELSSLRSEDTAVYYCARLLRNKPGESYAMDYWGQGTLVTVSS VL: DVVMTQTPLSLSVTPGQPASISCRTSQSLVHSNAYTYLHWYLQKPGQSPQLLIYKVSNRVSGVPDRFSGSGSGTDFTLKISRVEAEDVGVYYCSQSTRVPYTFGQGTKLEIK , result: 7.73

// pKd lookup, binder = AL2p-52 (antibody, V domains shown, Fab and IgG formats under one id) VH: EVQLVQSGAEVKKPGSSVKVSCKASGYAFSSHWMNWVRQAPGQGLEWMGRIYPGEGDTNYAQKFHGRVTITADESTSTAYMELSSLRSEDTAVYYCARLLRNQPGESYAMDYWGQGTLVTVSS VL: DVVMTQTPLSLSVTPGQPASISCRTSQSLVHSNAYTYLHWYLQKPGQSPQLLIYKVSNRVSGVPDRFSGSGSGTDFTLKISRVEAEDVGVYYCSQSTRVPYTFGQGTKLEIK , result: 7.57

// pKd lookup, binder = AL2p-58 (antibody, V domains shown, Fab and IgG formats under one id (explicit huIgG1 is m95, PSEG is m96)) VH: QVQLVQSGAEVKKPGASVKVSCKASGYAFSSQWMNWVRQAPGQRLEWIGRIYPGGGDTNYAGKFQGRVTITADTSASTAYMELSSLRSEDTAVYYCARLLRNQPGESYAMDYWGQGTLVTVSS VL: DVVMTQSPDSLAVSLGERATINCRSSQSLVHSNRYTYLHWYQQKPGQSPKLLIYKVSNRFSGVPDRFSGSGSGTDFTLKISRVEAEDVGVYYCSQSTRVPYTFGQGTKLEIK , result: 7.88
